Molecular target: T1, HLA-A*02:01 (human)
T1 construct: monomers captured on streptavidin plates; also called MHC class I
Experiment: UV peptide exchange ELISA
Listing: peptide exchange yield of selected binders
assay metric: peptide exchange yield

binder=SLIEKVTQL obs_value="50 to 75%"
binder=ALADGVTMQV obs_value="20 to 50%"
binder=ALFMKQIYL obs_value="50 to 75%"
binder=ALMERTGYSMV obs_value="50 to 75%"
binder=RLYSGISGLEL obs_value="50 to 75%"
binder=KMSELRVTL obs_value="50 to 75%"
binder=GIMEHITKI obs_value="≥ 75%"
binder=ALADLIEKELSV obs_value="50 to 75%"
